// provenance: patent US20230192860A1

Listed below: pKd values for each entry.
Target: T1, hVISTA-ECD 6-His tag (human, UniProt Q9H7M9 33-193)
T1 construct: also called monovalent hVISTA-ECD; human VISTA
T1 sequence (Q9H7M9 other isoform, or with tags, fused parts or gaps limits assumed): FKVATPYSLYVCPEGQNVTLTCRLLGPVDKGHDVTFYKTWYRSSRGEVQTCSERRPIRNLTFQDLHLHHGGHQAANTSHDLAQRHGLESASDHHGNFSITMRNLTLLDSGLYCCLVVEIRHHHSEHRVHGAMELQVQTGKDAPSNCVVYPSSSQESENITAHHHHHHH
Test: SPR 37 C, Ab on Protein A, pH 7.4
# pKd = -log10(concentration in molar units)

INSERT INTO measurements (binder, endpointresult) VALUES
  ('P1-077837 (P1-068744 H50I) (antibody, V domains shown) VH: QVQLVESGGGVVQPGRSLRLSCAASGFTFSEYAMHWVRQAPGKGLEWVAIIWYDGSNKYEADSVKGRFTISRDNSKNTLYLQMNSLRAEDTAVYYCARDSGFYESYYFDEWGQGTLVTVSS VL: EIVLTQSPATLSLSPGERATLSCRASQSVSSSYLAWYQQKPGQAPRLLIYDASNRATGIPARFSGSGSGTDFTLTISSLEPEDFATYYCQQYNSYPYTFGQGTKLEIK', 7.59);

What does the record list as pKd for P1-077861 (P1-068744 H50I E102Y) (antibody, V domains shown) VH: QVQLVESGGGVVQPGRSLRLSCAASGFTFSEYAMHWVRQAPGKGLEWVAIIWYDGSNKYEADSVKGRFTISRDNSKNTLYLQMNSLRAEDTAVYYCARDSGFYESYYFDYWGQGTLVTVSS VL: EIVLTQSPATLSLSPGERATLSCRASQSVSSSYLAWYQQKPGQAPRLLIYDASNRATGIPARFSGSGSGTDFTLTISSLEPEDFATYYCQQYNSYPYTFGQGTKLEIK ?
7.59

What does the record list as pKd for P1-077853 (P1-068744 E31S E102Y) (antibody, V domains shown) VH: QVQLVESGGGVVQPGRSLRLSCAASGFTFSSYAMHWVRQAPGKGLEWVAHIWYDGSNKYEADSVKGRFTISRDNSKNTLYLQMNSLRAEDTAVYYCARDSGFYESYYFDYWGQGTLVTVSS VL: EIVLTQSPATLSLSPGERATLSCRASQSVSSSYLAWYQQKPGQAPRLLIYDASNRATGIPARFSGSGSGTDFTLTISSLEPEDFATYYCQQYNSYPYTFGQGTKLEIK ?
5.92
